Target: FGFR1 (UniProt P11362)
Sequence (P11362 whole entry, looked up): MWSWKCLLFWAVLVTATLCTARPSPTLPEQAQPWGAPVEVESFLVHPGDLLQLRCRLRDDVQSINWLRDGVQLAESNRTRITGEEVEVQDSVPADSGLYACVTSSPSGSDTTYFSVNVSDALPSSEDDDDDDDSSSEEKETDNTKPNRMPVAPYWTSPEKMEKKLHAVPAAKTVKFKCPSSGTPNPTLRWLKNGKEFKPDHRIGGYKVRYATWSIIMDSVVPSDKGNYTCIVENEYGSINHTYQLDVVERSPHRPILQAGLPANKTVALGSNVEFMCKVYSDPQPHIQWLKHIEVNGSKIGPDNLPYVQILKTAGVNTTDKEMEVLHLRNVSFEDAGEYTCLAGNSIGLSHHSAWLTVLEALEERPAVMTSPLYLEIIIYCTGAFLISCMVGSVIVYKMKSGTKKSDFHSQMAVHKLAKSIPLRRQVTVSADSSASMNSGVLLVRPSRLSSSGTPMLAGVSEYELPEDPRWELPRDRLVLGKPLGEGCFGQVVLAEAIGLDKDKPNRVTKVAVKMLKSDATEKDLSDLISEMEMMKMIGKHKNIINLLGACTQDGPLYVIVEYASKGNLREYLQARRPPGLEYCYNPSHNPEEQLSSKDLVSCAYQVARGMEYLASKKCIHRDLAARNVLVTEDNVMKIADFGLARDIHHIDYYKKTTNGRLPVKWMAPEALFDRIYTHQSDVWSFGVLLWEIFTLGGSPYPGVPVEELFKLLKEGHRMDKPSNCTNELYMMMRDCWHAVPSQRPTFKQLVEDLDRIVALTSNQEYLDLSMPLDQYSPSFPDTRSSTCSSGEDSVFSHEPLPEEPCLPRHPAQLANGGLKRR
Assay: phosphorylation enrichment, bacterial display (enrichment ratio); higher = better substrate or ligand; peptides without Tyr show the background;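 further: 11-residue human phosphosite peptides and single-mutation variants displayed on the E. coli surface, counted by deep sequencing, each peptide's frequency after selection divided by its frequency in the unselected input library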;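 further: frequency after pTyr selection over input frequency; kinase dosed for 20-30% of maximal phosphorylation in three min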
The threshold is inclusive: phosphorylation enrichment of exactly 0.5 counts as Condition met; values below receive Condition not met.

[ask] Threshold query (phosphorylation enrichment >= 0.5) on GRVLGYGAFGK [FLT4_Y853]
[reply] Condition not met

[ask] Can you handle DMGAQYAAASR [ARID1B_Y483_P488R] next?
[reply] Condition not met

[ask] Can you handle SLDLSYFPTSS [EMD_Y181_YF] next?
[reply] Condition met

[ask] Can you handle QDEHGYISWCF [HSPB1_Y133_R136W] next?
[reply] Condition met

[ask] Can you handle FGAHNHHPLPV [OAT_Y55_Y55H_YF] next?
[reply] Condition not met

[ask] Can you handle GSERDYTYEEL [EIF2S2_Y174] next?
[reply] Condition met

[ask] Can you handle KSFDMYSGDVM [FAM3D_Y122_A118S] next?
[reply] Condition met

[ask] Can you handle LSSETYVKSFT [F5_Y2149_M2148T_YF] next?
[reply] Condition met

[ask] Can you handle YKEDPYLVVNP [MCM6_Y810_E806K] next?
[reply] Condition met

[ask] Can you handle RDLTDYLMKIL [ACTA1_Y190] next?
[reply] Condition met

[ask] Can you handle TNLVPYPRIHF [TUBA1A_Y262] next?
[reply] Condition not met

[ask] Can you handle PRIHSYRGHLW [VHL_Y112_R107P] next?
[reply] Condition met

[ask] Can you handle VTGWGYRKLRE [F11_Y521_D526E] next?
[reply] Condition not met

[ask] Can you handle CTTTHYNFMCN [TP53_Y234_I232T_YF] next?
[reply] Condition not met

[ask] Can you handle SDGGCYEQLFV [MC4R_Y41] next?
[reply] Condition met

[ask] Can you handle LLLLFYVVRFC [MPZ_Y177_YF] next?
[reply] Condition met

[ask] Can you handle TSESSYFKSLN [NGEF_Y288_A286S_YF] next?
[reply] Condition not met

[ask] Can you handle DTVRIYDDDFF [UBA1_Y560_E557V] next?
[reply] Condition met

[ask] Can you handle EYFDGYWGYSV [ITGA2B_Y265] next?
[reply] Condition met

Where do these numbers come from? They come from the supplement of paper PMC10065799.
